testedTarget: CRBN and Helios (IKZF2) (Homo sapiens, UniProt Q96SW2+Q9UKS7)
Construct: His (N); Strep (N)
Sequence (Q96SW2 whole entry): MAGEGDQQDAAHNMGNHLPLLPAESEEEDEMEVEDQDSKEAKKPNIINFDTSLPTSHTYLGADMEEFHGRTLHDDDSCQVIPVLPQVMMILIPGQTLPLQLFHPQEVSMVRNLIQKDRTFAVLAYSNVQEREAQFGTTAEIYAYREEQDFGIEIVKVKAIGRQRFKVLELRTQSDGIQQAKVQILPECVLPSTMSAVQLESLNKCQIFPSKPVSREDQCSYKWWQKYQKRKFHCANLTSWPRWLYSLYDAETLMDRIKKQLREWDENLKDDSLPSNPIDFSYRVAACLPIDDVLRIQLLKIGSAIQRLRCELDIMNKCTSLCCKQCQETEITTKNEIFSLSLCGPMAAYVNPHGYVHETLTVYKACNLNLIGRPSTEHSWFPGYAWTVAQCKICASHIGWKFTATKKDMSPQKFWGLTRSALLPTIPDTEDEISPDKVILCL
Sequence (Q9UKS7 whole entry): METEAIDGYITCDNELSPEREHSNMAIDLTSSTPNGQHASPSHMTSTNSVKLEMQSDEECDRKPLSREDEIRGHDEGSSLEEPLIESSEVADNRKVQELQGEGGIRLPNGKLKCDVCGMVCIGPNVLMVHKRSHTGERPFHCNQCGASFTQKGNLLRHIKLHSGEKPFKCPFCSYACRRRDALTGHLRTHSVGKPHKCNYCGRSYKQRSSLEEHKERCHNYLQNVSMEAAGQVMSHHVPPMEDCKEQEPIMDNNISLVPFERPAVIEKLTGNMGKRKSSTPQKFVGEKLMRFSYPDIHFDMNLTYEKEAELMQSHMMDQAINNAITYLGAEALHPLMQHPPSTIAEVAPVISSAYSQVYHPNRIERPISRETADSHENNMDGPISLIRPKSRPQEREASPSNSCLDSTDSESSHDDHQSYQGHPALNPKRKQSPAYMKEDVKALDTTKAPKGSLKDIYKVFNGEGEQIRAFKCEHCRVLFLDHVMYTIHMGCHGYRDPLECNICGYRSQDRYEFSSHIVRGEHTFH
assayProcedure: TR-FRET dimerization assay (CRBN-IKZF2 ternary complex formation)
Assay type: binding
conditions: compound concentration 6.6667E−07 (667 nM); n=1
testReadout: TR-FRET-IKZF2 (Normalized to CC-885)
Write the number on its own, no unit after it.

See these solved cases before continuing.
molecule="CN(C)C(=O)c1cccc(NC2=CC(=O)N(C3CCC(=O)NC3=O)C2=O)c1 (stereo not shown)" testreadout="TR-FRET-IKZF2 (Normalized to CC-885)" reportedmeasurement=0.452
molecule="Cc1ccc(NC(=O)NCc2ccc(NC3=CC(=O)N(C4CCC(=O)NC4=O)C3=O)cc2)cc1Cl (stereo not shown)" testreadout="TR-FRET-IKZF2 (Normalized to CC-885)" reportedmeasurement=0.701
molecule="Cc1ccc(NC(=O)NCCc2cccc(NC3=CC(=O)N(C4CCC(=O)NC4=O)C3=O)c2)cc1C(F)(F)F (stereo not shown)" testreadout="TR-FRET-IKZF2 (Normalized to CC-885)" reportedmeasurement=1.420

--- query ---
Documented TR-FRET-IKZF2 (Normalized to CC-885) of Cc1ccc(NC(=O)Nc2cccc(NC3=CC(=O)N(C4CCC(=O)NC4=O)C3=O)c2)cc1C (stereo not shown) : 0.321

---

Measured GSPT1 GFP/RFP Relative Abundance values are reported for all entries that follow.
testedTarget: GSPT1 (Homo sapiens, UniProt P15170+Q96SW2)
Sequence (P15170 whole entry, the tested form may be a part): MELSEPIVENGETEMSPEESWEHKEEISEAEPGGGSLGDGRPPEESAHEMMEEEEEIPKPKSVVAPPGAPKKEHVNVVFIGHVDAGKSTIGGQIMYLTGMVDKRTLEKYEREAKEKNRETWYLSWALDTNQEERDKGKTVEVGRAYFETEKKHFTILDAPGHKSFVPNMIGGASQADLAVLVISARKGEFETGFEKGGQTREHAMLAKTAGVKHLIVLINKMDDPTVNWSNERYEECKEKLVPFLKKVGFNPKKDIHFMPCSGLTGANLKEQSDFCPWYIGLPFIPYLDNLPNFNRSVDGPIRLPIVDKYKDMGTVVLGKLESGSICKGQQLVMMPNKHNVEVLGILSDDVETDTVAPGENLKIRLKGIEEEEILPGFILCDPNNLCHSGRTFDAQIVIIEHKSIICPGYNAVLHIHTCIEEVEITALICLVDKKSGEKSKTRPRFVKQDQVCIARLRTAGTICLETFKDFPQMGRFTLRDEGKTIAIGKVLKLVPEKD
Sequence (Q96SW2 whole entry, the tested form may be a part): as the sequence (Q96SW2 whole entry) above
Sequence (Q16531 whole entry partner, the tested form may be a part): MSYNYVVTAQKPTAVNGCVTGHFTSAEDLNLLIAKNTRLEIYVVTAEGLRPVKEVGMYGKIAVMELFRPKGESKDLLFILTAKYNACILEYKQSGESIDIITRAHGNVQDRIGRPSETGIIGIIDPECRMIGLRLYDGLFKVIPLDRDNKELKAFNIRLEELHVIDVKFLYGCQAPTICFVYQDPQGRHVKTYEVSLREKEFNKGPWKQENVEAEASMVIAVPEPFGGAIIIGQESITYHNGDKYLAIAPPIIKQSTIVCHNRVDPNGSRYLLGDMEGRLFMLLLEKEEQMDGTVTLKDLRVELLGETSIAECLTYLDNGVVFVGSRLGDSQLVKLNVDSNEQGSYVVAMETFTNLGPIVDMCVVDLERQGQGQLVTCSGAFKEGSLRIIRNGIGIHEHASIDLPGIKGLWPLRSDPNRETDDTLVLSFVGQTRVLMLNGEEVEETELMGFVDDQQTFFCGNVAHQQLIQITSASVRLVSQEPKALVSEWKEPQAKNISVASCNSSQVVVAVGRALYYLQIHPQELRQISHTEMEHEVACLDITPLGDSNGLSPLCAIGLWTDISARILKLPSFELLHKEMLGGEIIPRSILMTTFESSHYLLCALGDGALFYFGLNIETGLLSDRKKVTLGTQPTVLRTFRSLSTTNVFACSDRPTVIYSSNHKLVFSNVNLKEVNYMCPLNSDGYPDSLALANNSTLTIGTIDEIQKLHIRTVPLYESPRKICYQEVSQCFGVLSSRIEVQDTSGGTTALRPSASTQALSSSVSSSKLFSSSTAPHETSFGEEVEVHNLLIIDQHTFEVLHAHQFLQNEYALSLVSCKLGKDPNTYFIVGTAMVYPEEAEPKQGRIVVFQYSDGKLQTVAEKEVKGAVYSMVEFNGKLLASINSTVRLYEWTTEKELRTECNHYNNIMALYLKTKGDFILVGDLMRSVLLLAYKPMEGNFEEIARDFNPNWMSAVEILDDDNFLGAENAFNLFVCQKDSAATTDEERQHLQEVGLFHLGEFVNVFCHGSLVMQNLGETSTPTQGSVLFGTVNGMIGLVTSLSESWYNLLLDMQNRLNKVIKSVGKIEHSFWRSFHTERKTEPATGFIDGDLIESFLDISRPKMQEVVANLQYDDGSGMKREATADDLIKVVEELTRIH
assayProcedure: Cellular degradation assay, eGFP-GSPT1 fusion with mCherry reporter in Flp-In 293 cells
Type: cell-based
Set-up: expressed in transfected cells; host or cells: Flp-In 293
conditions: compound concentration 2.00E−06; 5 h incubation; n=1
// no unit, no text: just the number

Worked set:
molecule="COC(=O)CN(C)C1=CC(=O)N(C2CCC(=O)NC2=O)C1=O (centres unmarked)" reportedmeasurement=1.036
molecule="Cc1ccc(NC2=CC(=O)N(C3CCC(=O)NC3=O)C2=O)cc1C#N (centres unmarked)" reportedmeasurement=0.843

Entry CN(C)C(=O)c1ccc(NC2=CC(=O)N(C3CCC(=O)NC3=O)C2=O)cc1 (centres unmarked) — recorded GSPT1 GFP/RFP Relative Abundance = 0.821

---

testedTarget: SALL4 ZNF1-2 (Homo sapiens, UniProt Q96SW2+Q9UJQ4)
Construct: IKZF1Δ, IKZF2Δ, GSPT1 and SALL4 ZnF1-2 were subcloned; expressed in transfected cells; host or cells: Flp-In 293
Sequence (Q9UJQ4 378-438 limits assumed): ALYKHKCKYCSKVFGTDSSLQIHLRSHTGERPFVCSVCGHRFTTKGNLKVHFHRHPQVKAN
Sequence (Q96SW2 whole entry): as the sequence (Q96SW2 whole entry) above
Sequence (Q16531 whole entry partner): as the sequence (Q16531 whole entry partner, the tested form may be a part) above
assayProcedure: Cellular degradation assay, eGFP-SALL4 ZnF1-2 fusion with mCherry reporter in Flp-In 293 cells
Format: cell-based
conditions: compound concentration 2.00E−06; 5 h incubation; n=1
testReadout: SALL4 ZNF1-2 GFP/RFP Relative Abundance
Just the number, please, no unit after it.

compound="O=C(O)CCCNC1=CC(=O)N(C2CCC(=O)NC2=O)C1=O (stereo not drawn)" testreadout="SALL4 ZNF1-2 GFP/RFP Relative Abundance" reportedmeasurement=0.921
compound="O=C1CCC(N2C(=O)C=C(Nc3ccc(-n4ccnc4)cc3)C2=O)C(=O)N1 (stereo not drawn)" testreadout="SALL4 ZNF1-2 GFP/RFP Relative Abundance" reportedmeasurement=0.913
compound="Cc1ccc(NC2=CC(=O)N(C3CCC(=O)NC3=O)C2=O)cc1C#N (stereo not drawn)" testreadout="SALL4 ZNF1-2 GFP/RFP Relative Abundance" reportedmeasurement=0.946
compound="Cc1ccc(NC2=CC(=O)N(C3CCC(=O)NC3=O)C2=O)cc1C (stereo not drawn)" testreadout="SALL4 ZNF1-2 GFP/RFP Relative Abundance" reportedmeasurement=0.941
compound="O=C1CCC(N2C(=O)C=C(Nc3ccc(Cl)cc3)C2=O)C(=O)N1 (stereo not drawn)" testreadout="SALL4 ZNF1-2 GFP/RFP Relative Abundance" reportedmeasurement=0.897
compound="Cc1ccc(NC(=O)Nc2ccc(NC3=CC(=O)N(C4CCC(=O)NC4=O)C3=O)cc2)cc1Cl (stereo not drawn)" testreadout="SALL4 ZNF1-2 GFP/RFP Relative Abundance" reportedmeasurement=0.997

GET /values?item= CCOC(=O)c1cccc(NC2=CC(=O)N(C3CCC(=O)NC3=O)C2=O)c1 (stereo not drawn) &system= SALL4 ZNF1-2 (Homo sapiens, UniProt Q96SW2+Q9UJQ4) returns SALL4 ZNF1-2 GFP/RFP Relative Abundance: 0.786

Cc1ccc(NC(=O)NCCCNC2=CC(=O)N(C3CCC(=O)NC3=O)C2=O)cc1Cl (stereo not drawn) on SALL4 ZNF1-2 (Homo sapiens, UniProt Q96SW2+Q9UJQ4) gives SALL4 ZNF1-2 GFP/RFP Relative Abundance = 1.039

Considering CCOC(=O)CNC1=CC(=O)N(C2CCC(=O)NC2=O)C1=O (stereo not drawn) , its SALL4 ZNF1-2 GFP/RFP Relative Abundance with SALL4 ZNF1-2 (Homo sapiens, UniProt Q96SW2+Q9UJQ4) was recorded as 1.007

Tested on SALL4 ZNF1-2 (Homo sapiens, UniProt Q96SW2+Q9UJQ4), the item COC(=O)c1n[nH]c(NC2=CC(=O)N(C3CCC(=O)NC3=O)C2=O)n1 (stereo not drawn) showed SALL4 ZNF1-2 GFP/RFP Relative Abundance equal to 0.908

Reported SALL4 ZNF1-2 (Homo sapiens, UniProt Q96SW2+Q9UJQ4) SALL4 ZNF1-2 GFP/RFP Relative Abundance for item CN(C1=CC(=O)N(C2CCC(=O)NC2=O)C1=O)c1ccccc1 (stereo not drawn) was 0.936

Record COC(=O)CNC1=CC(=O)N(C2CCC(=O)NC2=O)C1=O (stereo not drawn) has SALL4 ZNF1-2 (Homo sapiens, UniProt Q96SW2+Q9UJQ4) SALL4 ZNF1-2 GFP/RFP Relative Abundance equal to 1.017

Sample Cc1ccc(NC(=O)Nc2cccc(NC3=CC(=O)N(C4CCC(=O)NC4=O)C3=O)c2)cc1Cl (stereo not drawn) , system: SALL4 ZNF1-2 (Homo sapiens, UniProt Q96SW2+Q9UJQ4). Its SALL4 ZNF1-2 GFP/RFP Relative Abundance is 0.897

The compound O=C1CCC(N2C(=O)C=C(Nc3ccccc3)C2=O)C(=O)N1 (stereo not drawn) on SALL4 ZNF1-2 (Homo sapiens, UniProt Q96SW2+Q9UJQ4): SALL4 ZNF1-2 GFP/RFP Relative Abundance was 0.762

Reference for the values: patent US12227488B2
